Biological target: T1, human His6-GITR (human, UniProt Q9Y5U5 26-162)
T1 construct: His6-tagged recombinant protein; also called hGITR-His; human GITR-His
T1 sequence: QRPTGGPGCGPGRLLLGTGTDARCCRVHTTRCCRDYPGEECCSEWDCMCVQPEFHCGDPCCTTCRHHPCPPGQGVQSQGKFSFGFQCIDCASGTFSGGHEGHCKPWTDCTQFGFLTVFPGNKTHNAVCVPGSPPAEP
Experiment: ELISA, scFv periplasmic extract on coated His6-GITR
Returns: string. Value is Criterion met if measured hGITR-His/BKG is below 20 fold over background, and Criterion not met if it is greater than or equal to it.

Example entries begin here.
GITR-Mab-5 scFv (scFv, V domains shown, scFv in periplasmic extract, V5 tag) VH: EVQLLESGGGLVQPGGSLRLSCAASGFTFDAYAMHWVRQAPGKGLEWVSAIGTGGDTYYADSVKGRFTISRDNSKNTLYLQMNSLRAEDTAVYYCARDLYGSGSPQYYYYYGMDVWGQGTTVTVSS VL: DIQMTQSPSSLSASVGDRVTITCRASQGIKNDLGWYQQKPGKAPKLLIYAASSLQSGVPSRFSGSGSGTDFTLTISSLQPEDFATYYCQQSYSVPFTFGQGTKVEIK : Criterion met
GITR-Mab-39 scFv (scFv, V domains shown, scFv in periplasmic extract, V5 tag) VH: EVQLLESGGGLVKPGGSLRLSCAASGFTFSSYWMSWVRQAPGKGLEWVSSISWSSTYIYYADSVKGRFTISRDDSKNTLYLQMNSLKTEDTAVYYCARDGQLGHWHFDLWGRGTLVTVSS VL: DIQMTQSPSSLSASVGDRVTITCRASQSISDWLAWYQQKPGKAPKLLIYEASKLATGVPSRFSGSGSGTDFTLTISSLQPEDFATYYCQQSYTTPLTFGGGTKVEIK : Criterion met
GITR-Mab-1 scFv (scFv, V domains shown, scFv in periplasmic extract, V5 tag) VH: QVQLVQSGAEVKKPGASVKVSCKASGYTFTNYHLHWVRQAPGQGLEWMGMINPNDGSTTYAQKFQGRVTMTRDTSTSTVYMELSSLRSEDTAVYYCARSTYYYDSSGYYYYYYGMDVWGQGTTVTVSS VL: EIVMTQSPATLSVSPGERATLSCRASQSVYSNYLAWYQQKPGQAPRLLIYGASTRATGIPARFSGSGSGTEFTLTISSLQSEDFAVYYCQQYHSYPLTFGGGTKVEIK : Criterion met

Qu. Just wondering, is hGITR-His/BKG of GITR-Mab-10 scFv (scFv, V domains shown, scFv in periplasmic extract, V5 tag) VH: QVQLVQSGAEVKKPGASVKVSCKASGYTFTSNYMHWVRQAPGQGLEWMGWMNPNSGNTAYAQKFQGRVTMTRDTSTSTVYMELSSLRSEDTAVYYCARGRGGQLLFDYWGQGTLVTVSS VL: DIQMTQSPSSLSASVGDRVTITCRASQGISSWLAWYQQKPGKAPKLLIYAASTLQSGVPSRFSGSGSGTDFTLTISSLQPEDFATYYCQQYNSYSTFGQGTKVEIK below 20 fold over background?
Ans. Criterion not met

Qu. Just wondering, is hGITR-His/BKG of GITR-Mab-23 scFv (scFv, V domains shown, scFv in periplasmic extract, V5 tag) VH: EVQLLESGGGLVQPGGSLRLSCAASGFPFSTYAIHWVRQAPGKGLEWVSAISGSGGSTYYADSVKGRFTISRDNSKNTLYLQMNSLRAEDTAVYYCAGPDWYFDLWGRGTLVTVSS VL: DIQMTQSPSSLSASVGDRVTITCRASQAISNSLAWYQQKPGKAPKLLIYAASTLQRGVPSRFSGSGSGTDFTLTISSLQPEDFATYYCQQYYSTPYTFGQGTKLEIK below 20 fold over background?
Ans. Criterion not met
